B1: ZNF263 (parent)
chain: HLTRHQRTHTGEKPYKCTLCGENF

Variants of: B1
Experiment: protein stability index of a GFP-peptide fusion (GPS, HEK-293T) (PSI 1-6); higher = more stable;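 further: lentivirally expressed fusions sorted by FACS into six bins by GFP to DsRed ratio, PSI derived from sequencing read proportions per bin multiplied by bin number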
Conditions: c terminus: a fixed tail appended
readout-type: protein stability index
Hey, just send me the number, nothing else.

>>> df
   mutation_key             readout_type  assay_value
0          K16H  protein stability index         2.91

Q: Please look up its protein stability index: `C17N`
Ans: 3.1

Q: Please look up its protein stability index: `F24A`
Ans: 4.22
